- target-or-system: mouse VISTA (mVISTA) (Mus musculus, UniProt Q9D659)
- Construct: expressed in transfected cells; host or cells: Human embryonic kidney 293T cells
- Sequence (Q9D659 33-308): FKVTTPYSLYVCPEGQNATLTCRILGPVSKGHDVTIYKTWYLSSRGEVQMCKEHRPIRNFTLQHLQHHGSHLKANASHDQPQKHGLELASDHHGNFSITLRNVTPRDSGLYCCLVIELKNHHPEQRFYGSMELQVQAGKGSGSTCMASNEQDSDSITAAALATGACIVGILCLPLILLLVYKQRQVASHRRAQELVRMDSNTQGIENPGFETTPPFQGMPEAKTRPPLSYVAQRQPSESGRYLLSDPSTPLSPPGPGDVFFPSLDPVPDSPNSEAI
- test-summary: Cell-Based Binding High-Content Assay For mVISTA (HC CBA mVISTA)
- measurement-parameters: read-out: HC CBA mVISTA IC50
pIC50: −log10 of the molar value. Positions of bridges follow the written chain, without caps; N, C: chain ends. Non-standard residues stand in square brackets, D forms with d. Residues, ends and D or L forms follow the SMILES beside them. Cit = NC(=O)NCCC[C@H](N)C(=O)O; Ahp(2) = CCCCC[C@H](N)C(=O)O; NHexGly = CCCCCCNCC(=O)O; Nle = CCCC[C@H](N)C(=O)O
pIC50 overview

molecule | pIC50
CCCCCCN1CC(=O)N[C@@H](Cc2ccc(O)cc2)C(=O)N[C@@H](CCCC)C(=O)N[C@@H](CC(N)=O)C(=O)N[C@@H](CCCNC(N)=O)C(=O)N[C@@H](CC(C)C)C(=O)N[C@@H](CCCCC)C(=O)N2CCC[C@H]2C(=O)N[C@@H](C(C)C)C(=O)N[C@@H](CC(=O)O)C(=O)N[C@H](C(=O)NCC(=O)O)CSCC(=O)N[C@@H](Cc2ccccc2)C(=O)N[C@@H](Cc2c[nH]c3ccccc23)C(=O)N[C@@H](CC(=O)O)C1=O [Example 1363] ({CH2CO}-FWD[NHexGly]Y[Nle]N[Cit]L[Ahp(2)]PVDCG-OH; thioether N-14) | 8.40
CCCCCCN1CC(=O)N[C@@H](Cc2ccc(O)cc2)C(=O)N[C@@H](CCCC)C(=O)N[C@@H](CC(N)=O)C(=O)N[C@@H](CCCNC(=N)N)C(=O)N[C@@H](CC(C)C)C(=O)N[C@@H](CCCCC)C(=O)N2CCC[C@H]2C(=O)N[C@@H](C(C)C)C(=O)N[C@@H](CCCNC(=N)N)C(=O)N[C@H](C(=O)NCC(=O)O)CSCC(=O)N[C@@H](Cc2ccccc2)C(=O)N[C@@H](Cc2c[nH]c3ccccc23)C(=O)N[C@@H](CC(=O)O)C1=O [Example 1360] ({CH2CO}-FWD[NHexGly]Y[Nle]NRL[Ahp(2)]PVRCG-OH; thioether N-14) | 7.55

====

- target-or-system: mouse VISTA (mVISTA) (Mus musculus)
- Construct: expressed in transfected cells; host or cells: Human embryonic kidney 293T cells
- test-summary: Cell-Based Binding High-Content Assay For mVISTA (HC CBA mVISTA)
- measurement-parameters: 293T cells expressing mouse VISTA; competition with biotinylated peptide (2 nM); read-out: HC CBA mVISTA IC50
pIC50: −log10 of the molar value. Positions of bridges follow the written chain, without caps; N, C: chain ends. Non-standard residues stand in square brackets, D forms with d. Residues, ends and D or L forms follow the SMILES beside them. Ahp(2) = CCCCC[C@H](N)C(=O)O; NHexGly = CCCCCCNCC(=O)O; Nle = CCCC[C@H](N)C(=O)O
pIC50 overview

compound | pIC50
CCCCCCN1CC(=O)N[C@@H](Cc2ccc(O)cc2)C(=O)N[C@@H](CCCC)C(=O)N[C@@H](CC(=O)O)C(=O)N[C@@H](CCCNC(=N)N)C(=O)N[C@@H](CC(C)C)C(=O)N[C@@H](CCCCC)C(=O)N2CCC[C@H]2C(=O)N[C@@H](C(C)C)C(=O)N[C@@H](CC(=O)O)C(=O)N[C@H](C(=O)N[C@@H](CC(=O)O)C(N)=O)CSCC(=O)N[C@@H](Cc2ccccc2)C(=O)N[C@@H](Cc2ccc(O)cc2)C(=O)N[C@@H](CC(=O)O)C1=O [Example 1001] ({CH2CO}-FYD[NHexGly]Y[Nle]DRL[Ahp(2)]PVDCD-NH2; thioether N-14) | 7.90
CCCCCCN1CC(=O)N[C@@H](Cc2ccc(O)cc2)C(=O)N[C@@H](CC(C)C)C(=O)NCC(=O)N[C@@H](CCCNC(=N)N)C(=O)N[C@@H](Cc2ccc(O)cc2)C(=O)N[C@@H](CCCCC)C(=O)N2CCC[C@H]2C(=O)N[C@@H](C(C)C)C(=O)N[C@@H](C(C)C)C(=O)N[C@H](C(=O)NCC(=O)O)CSCC(=O)N[C@@H](Cc2ccccc2)C(=O)N[C@@H](Cc2ccc(O)cc2)C(=O)N[C@@H](CC(=O)O)C1=O [Example 1097] ({CH2CO}-FYD[NHexGly]YLGRY[Ahp(2)]PVVCG-OH; thioether N-14) | 7.74
CCCCCCN1CC(=O)N[C@@H](Cc2ccc(O)cc2)C(=O)N[C@@H](CCCCC)C(=O)N[C@@H](CC(=O)O)C(=O)N[C@@H](CCCNC(=N)N)C(=O)N[C@@H](CC(C)C)C(=O)N[C@@H](CCCCC)C(=O)N2CCC[C@H]2C(=O)N[C@@H](C(C)C)C(=O)N[C@@H](CC(=O)O)C(=O)N[C@H](C(=O)N[C@@H](CCC(=O)O)C(N)=O)CSCC(=O)N[C@@H](Cc2ccccc2)C(=O)N[C@@H](Cc2ccc(O)cc2)C(=O)N[C@@H](CC(=O)O)C1=O [Example 1004] ({CH2CO}-FYD[NHexGly]Y[Ahp(2)]DRL[Ahp(2)]PVDCE-NH2; thioether N-14) | 7.89
CCCCCCN1CC(=O)N[C@@H](Cc2ccc(O)cc2)C(=O)N[C@@H](CCCCC)C(=O)N[C@@H](CC(N)=O)C(=O)N[C@@H](CCCNC(=N)N)C(=O)N[C@@H](C)C(=O)N[C@@H](CCCCC)C(=O)N2CCC[C@H]2C(=O)N[C@@H](C(C)C)C(=O)N[C@@H](CO)C(=O)N[C@H](C(=O)NCC(N)=O)CSCC(=O)N[C@@H](Cc2ccccc2)C(=O)N[C@@H](Cc2ccc(O)cc2)C(=O)N[C@@H](CC(=O)O)C1=O [Example 1089] ({CH2CO}-FYD[NHexGly]Y[Ahp(2)]NRA[Ahp(2)]PVSCG-NH2; thioether N-14) | 7.42
